# Assay Summary: in vitro
# Measurement Context: African green monkey
This listing pairs compounds with measured CC50.

{"Compound": "CNc1nc(-c2cccs2)nc2c1nc(C#Cc1ccccc1)n2[C@@H]1OCC(O)C1O (stereo partly drawn)", "CC50": "> 50 µM"}
{"Compound": "Nc1ncnc2c1ncn2[C@H]1C(O)C(O)[C@@H](CO)[C@H]1F (stereo partly drawn)", "CC50": "> 50 µM"}
{"Compound": "Nc1ncnc2c1ncn2[C@H]1C(O)C(O)[C@@H](CO)C1(F)F (stereo partly drawn)", "CC50": "> 50 µM"}
{"Compound": "CCN(CC)CCCC(C)Nc1ccnc2cc(Cl)ccc12 (stereo not drawn) [Chloroquine, chloroquine, reference compound]", "CC50": "> 150 µM"}
{"Compound": "CCC(CC)COC(=O)[C@H](C)N[P@](=O)(OC[C@H]1O[C@@](C#N)(c2ccc3c(N)ncnn23)[C@H](O)[C@@H]1O)Oc1ccccc1 [Remdesivir, remdesivir, reference compound]", "CC50": "> 50 µM"}

Now, please, on to the next compound.
Reported CC50 for Cc1cccc(C)c1OCC(=O)N[C@@H](Cc1ccccc1)[C@@H](O)C[C@H](Cc1ccccc1)NC(=O)[C@H](C(C)C)N1CCCNC1=O [Lopinavir, lopinavir, reference compound] was > 50 µM
